- Tested on: 786-0 renal
- measurement.notes: NCI tumour cell line growth inhibition, 48 h; in the data active means GI50 below about 0.43 µM; inactive means the rest
Result category, one only: true (1) for active, false (0) for inactive

Please review the entries below; each comes with its answer.
{"columns": ["molecule", "label.class"],
 "data": [
  ["COc1cc2nc(C)nc(N[C@H](C)c3cc(N)cc(C(F)(F)F)c3)c2cc1O[C@H]1CCOC1", "false (0)"],
  ["COc1cc(C(=O)/C=C/c2sc(Cl)nc2Cl)cc(OC)c1OC", "false (0)"]
]}

Returns: the outcome recorded for `COc1ccc2c(c1)C(=O)/C(=C/c1ccc(OCC(=O)Nc3nccs3)cc1)O2` in this assay.
true (1)

Returns: the outcome recorded for `O=C(CN1CCN(c2cc3c(cc2F)c(=O)c(C(=O)N/N=C/c2ccccc2O)cn3C2CC2)CC1)N/N=C\c1ccccc1O` in this assay.
false (0)
